target: CYP2E1 (Homo sapiens, UniProt P05181); assay: Inhibition of CYP2E1 at 10 uM; format: ADME
Sequence (P05181 whole entry): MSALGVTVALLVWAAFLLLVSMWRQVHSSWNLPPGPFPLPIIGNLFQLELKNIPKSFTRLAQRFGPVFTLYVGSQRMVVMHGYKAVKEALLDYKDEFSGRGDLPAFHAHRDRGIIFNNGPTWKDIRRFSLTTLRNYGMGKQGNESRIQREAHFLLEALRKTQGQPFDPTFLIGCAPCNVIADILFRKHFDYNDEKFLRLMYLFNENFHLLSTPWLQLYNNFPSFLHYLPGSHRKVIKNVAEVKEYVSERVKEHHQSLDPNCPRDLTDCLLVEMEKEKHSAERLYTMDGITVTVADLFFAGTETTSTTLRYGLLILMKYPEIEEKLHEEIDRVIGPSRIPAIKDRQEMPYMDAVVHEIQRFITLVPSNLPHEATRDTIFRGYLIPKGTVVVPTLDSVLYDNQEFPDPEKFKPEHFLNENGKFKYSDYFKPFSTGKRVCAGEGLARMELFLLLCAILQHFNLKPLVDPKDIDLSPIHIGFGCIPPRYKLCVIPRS
quantity_name: inhibition at 10 µM (%)
Answers are plain numbers, in %.

**Query** I have this compound here, O=C(/C=C/c1ccc2c(ccn2S(=O)(=O)c2ccccc2)c1)NO , and I need its recorded inhibition at 10 µM.
**Result** 22

###

For each record, write down the corresponding IC50.
target: Histone deacetylase; experiment: Inhibition of HDAC in human HeLa cell nuclear extract after 30 mins by fluorescence microplate reader; assay type: protein assay
Give bare numbers, in µM.

structure_string=O=C(/C=C/c1ccc2c(ccn2Cc2ccccc2)c1)NO system_name="Histone deacetylase" unit_text=µM experimental_value=0.0321
structure_string=O=C(/C=C/c1ccc2ccn(S(=O)(=O)c3ccccc3)c2c1)NO system_name="Histone deacetylase" unit_text=µM experimental_value=0.254

Quick request: IC50 for each listed item, please.
1. O=C(/C=C/c1ccc2[nH]cc(S(=O)(=O)c3ccccc3)c2c1)NO
2. O=C(CCc1ccc2c(ccn2S(=O)(=O)c2ccccc2)c1)NO
3. O=C(/C=C/c1ccc2c(ccn2S(=O)(=O)c2ccc(F)cc2)c1)NO
4. O=C(/C=C/c1ccc2c(ccn2S(=O)(=O)c2ccc([N+](=O)[O-])cc2)c1)NO

**Result**
[0.2752, 0.4075, 0.0168, 0.0126]

Quick request: IC50 for each listed item, please.
1. O=C(/C=C/c1ccc2c(ccn2C(=O)c2ccccc2)c1)NO
2. O=C(/C=C/c1ccc2c(ccn2-c2ccccc2)c1)NO

**Result**
1: 0.7576; 2: 0.1865
